Values of pIC50 reported for Bcr/Abl fusion protein (Homo sapiens, UniProt P00519) appear below.
pIC50: −log10 of the molar value.
Metric: pIC50

Recorded results for 2 compounds are shown here.
[[record]]
molecular_string = "Cc1cn(-c2cc(NC(=O)c3ccc(C)c(C#Cc4cnc(N)nc4)c3)cc(C(F)(F)F)c2)cn1"
target_under_test = "Bcr/Abl fusion protein (Homo sapiens, UniProt P00519)"
readout_value = 8.10

[[record]]
molecular_string = "Cc1cn(-c2cc(NC(=O)c3ccc(C)c(C#Cc4cnc(N5CCCCC5)nc4)c3)cc(C(F)(F)F)c2)cn1"
target_under_test = "Bcr/Abl fusion protein (Homo sapiens, UniProt P00519)"
readout_value = 6.04


I = Cc1cn(-c2cc(NC(=O)c3ccc(C)c(C#Cc4cnc(NC(C)(C)C)nc4)c3)cc(C(F)(F)F)c2)cn1
II = CNc1ncc(C#Cc2cc(C(=O)Nc3cc(-n4cnc(C)c4)cc(C(F)(F)F)c3)ccc2C)cn1
Query: Which has the higher pIC50, I or II ? Select an item and report its label.
Response: II
